experiment: chemical genetic growth profiling, strain panel (AID 1159580);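 further: tested at 20 µM; growth read once vehicle control cultures reached saturation at 30 °C; lower values mean less growth of the strain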; conditions: S. cerevisiae deletion strains, growth OD, locus YBR021W, strain FUR4
In all, about 5,500 compounds went through this assay and about 2,000 (36%) were called active. Roughly 18% stayed inconclusive and do not appear here. No stated cut-off is given here; in the data, active means normalized growth mostly below about 0.91 (no sharp cut-off); inconclusive means no clear call, values can overlap the other calls; inactive means mostly above about 0.92. Some of the results follow.
Can you answer with just one of these options? Y (active), N (inactive)

[[record]]
molecule = "C[C@H](CCC(=O)O)[C@H]1CCC2C3C(=O)CC4CC(=O)CC[C@]4(C)C3CC(=O)[C@@]21C (some centres not stated)"
assigned_class = "N"

[[record]]
molecule = "CC(CCC(=O)O)[C@H]1CCC2C3CC[C@@H]4CC(=O)CC[C@]4(C)C3C=C[C@@]21C (some centres not stated)"
assigned_class = "N"

[[record]]
molecule = "CC(C)CCCC(C)C1CC[C@@]2(C)C3=C(CC[C@]12C)[C@@]1(C)CC[C@H](O)C(C)(C)C1CC3 (some centres not stated)"
assigned_class = "N"

[[record]]
molecule = "C[n+]1ccccc1/C=N/O"
assigned_class = "N"

[[record]]
molecule = "O=C(O)c1ccc(S(=O)(=O)N(Cl)Cl)cc1"
assigned_class = "N"


Fill in: this test's call for CCCOc1ccc2nc(NC(=O)OC)[nH]c2c1 is ___ N

Test call, this molecule: NCC(=O)c1ccccc1 N
